- METHOD: qHTS assay to identify small molecule phospholipidosis (PLD) inducers (AID 1259344); further: on the % scale 0 is the no-effect control and ±100 the full control effect
- MEASUREMENT CONDITIONS: HepG2 phospholipidosis, LipidTOX Red imaging, 24 h; series mostly up to 38.3 µM
Results filed as inconclusive are left out. Activity calls are given as the source filed them. The call rests on the fitted dose curve; in most records, active means well fitted activation curve with a large enough effect; inconclusive means small, poorly fitted or top-dose-only effect; inactive means flat fitted curve, though single readings scatter. Non-standard residues stand in square brackets, D forms with d. Residues, ends and D or L forms follow the SMILES beside them. pGlu = O=C1CC[C@@H](C(=O)O)N1; Thz = O=C(O)[C@@H]1CSCN1
READOUT TYPE: PLD induction

| COMPOUND | DATA VALUE |
| --- | --- |
| CCCCCCCCCCCC(=O)N(CCO)CCO | inactive |
| FCOC(C(F)(F)F)C(F)(F)F | inactive |
| O=C1CC[C@@H](C(=O)N2CSC[C@H]2C(=O)O)N1 ([pGlu]-[Thz]-OH) | inactive |
| CNC[C@@H]1CC[C@@H](N)[C@@H](O[C@H]2[C@H](O)[C@@H](O[C@H]3OC[C@](C)(O)[C@H](NC)[C@H]3O)[C@H](N)C[C@@H]2N)O1 | -1.48% [at 7.66 µM] (inactive) |
| C=CCSSSCC=C | inactive |
| O=C(OC1C[C@@H]2CC3C[C@H](C1)N2CC3=O)c1c[nH]c2ccccc12 (stereo not given in full) | inactive |
| CCC[C@@]1(CCc2ccccc2)CC(O)=C([C@H](CC)c2cccc(NS(=O)(=O)c3ccc(C(F)(F)F)cn3)c2)C(=O)O1 | -4.07% [at 7.66 µM] (inactive) |
| COC(=O)CCC(=O)CN | inactive |

# input Please indicate PLD induction recorded for O=[N+]([O-])c1ccc(Oc2ccc(N=C=S)cc2)cc1
# output inactive

# input Please indicate PLD induction recorded for CC1(C)S[C@@H]2[C@H](NC(=O)Cc3ccccc3)C(=O)N2[C@H]1C(=O)O
# output inactive

---

- METHOD: qHTS assay for small molecules that induce genotoxicity in human embryonic kidney cells expressing luciferase-tagged ATAD5 - cell viability (AID 651634); further: nearly all actives have a fitted effect of over 25% in size
- MEASUREMENT CONDITIONS: HEK293T ATAD5-luc cells viability, CellTiter-Fluor, 15.5 h; series mostly up to 83.3 µM
Records with an inconclusive call do not appear. Active and inactive are the calls of the source. Calls follow the shape of the full dose curve.
Permitted responses: active, inactive

# input // outcome(item) with item = O=C(OCc1ccccc1)c1cccnc1
# output inactive

# input // outcome(item) with item = CS(=O)(=O)Nc1cc2occ(NC=O)c(=O)c2cc1Oc1ccccc1
# output inactive

# input // outcome(item) with item = NNc1nnc(Cc2ccncc2)c2ccccc12
# output inactive

# input // outcome(item) with item = CN(CCO)CC(O)Cn1cnc2c1c(=O)n(C)c(=O)n2C (centres undefined) (tested in a mixture with another compound)
# output inactive

# input // outcome(item) with item = CCN(CC)CCOc1ccccc1OC
# output inactive

# input // outcome(item) with item = CCCCCCCCCCCCCCCC(=O)O[C@@H]1[C@@H](O)[C@@H](O)[C@@H]([C@H](NC(=O)[C@@H]2C[C@@H](CCC)CN2C)[C@H](C)Cl)O[C@@H]1SC
# output inactive

# input // outcome(item) with item = CO[C@H]1C[C@H](O[C@H]2[C@H](C)O[C@@H](O[C@@H]3/C(C)=C/C[C@@H]4C[C@@H](C[C@]5(C=C[C@H](C)[C@@H](C6CCCCC6)O5)O4)OC(=O)[C@@H]4C=C(C)[C@@H](O)[C@H]5OC/C(=C\C=C\[C@@H]3C)[C@]54O)C[C@@H]2OC)O[C@@H](C)[C@@H]1O
# output active

# input // outcome(item) with item = CC(C)(S)[C@@H](N)C(=O)O
# output inactive

# input // outcome(item) with item = CCN(CC)CCC(=O)N1c2ccccc2Sc2ccc(Cl)cc21
# output inactive

Data credit: PubChem BioAssay (Tox21)
